# Tested on: NCI-H226 lung
# assay.notes: NCI tumour cell line growth inhibition, 48 h
// TGI lookup, one value per entry

The cases that follow already have their TGI on record.
chemical.smiles | measured.endpoint | test.result
O=P(O)(O)CN1CCNCCN(CP(=O)(O)O)CC1 | TGI | > 86.8 µM
COc1ccc(-c2nc(C(=O)c3ccccc3)n(CC(=O)c3ccc(Cl)cc3)c2-c2ccc(OC)cc2)cc1 | TGI | > 100 µM
Oc1ccc(Cl)cc1/C=N\NC(=S)N/N=C/c1cc(Cl)ccc1O | TGI | 14.1 µM
c1ccc(-c2nnc3nn4c(-c5ccccc5)cnnc4c3c2-c2ccccc2)cc1 | TGI | > 100 µM
N#Cc1nc(-c2cccc(-c3nc(C#N)c(N)o3)n2)oc1N | TGI | > 100 µM

Continue with the next compound.
The compound listed as O=C(Nc1cccc(C(F)(F)F)c1)c1cc2ccccc2cc1O has a reported TGI of > 100 µM

* * *

# Tested on: OVCAR-3 ovarian
# assay.notes: NCI tumour cell line growth inhibition, 48 h
// GI50 lookup, one value per entry

The compound listed as O=C(Nc1cccc(C(F)(F)F)c1)c1cc2ccccc2cc1O has a reported GI50 of 783 nM

The compound listed as CC(=O)[C-](C(C)=O)c1ccccc1.CC(=O)[C-](C(C)=O)c1ccccc1.CC(=O)[C-](C(C)=O)c1ccccc1.[Cl-].[Zr+4] has a reported GI50 of > 100000 nM

The compound listed as O=C1/C(=C\c2ccccc2)C2OCC=C3CN4CCC56c7ccccc7N1C5C2C3CC46 (configuration not stated) has a reported GI50 of 36500 nM

The compound listed as COc1ccc(-c2nc(C(=O)c3ccccc3)n(CC(=O)c3ccc(Cl)cc3)c2-c2ccc(OC)cc2)cc1 has a reported GI50 of > 100000 nM

* * *

# Test system: 786-0 renal
# assay.notes: NCI tumour cell line growth inhibition, 48 h
measured.endpoint: TGI

The cases that follow already have their TGI on record.
compound | test.result
Cc1cc(=O)oc2c(CNC(CC(C)C)C(=O)O)c(O)ccc12 (stereo unspecified) | > 100 µM
O=C1C=C(N2CCN(CCOCCO)CC2)C(=O)c2c(O)ccc(O)c21 | 21.7 µM
CCNC(=S)N/N=C(\C)c1cccc(C)n1 | > 100 µM

The compound listed as CC(=O)[C-](C(C)=O)c1ccccc1.CC(=O)[C-](C(C)=O)c1ccccc1.CC(=O)[C-](C(C)=O)c1ccccc1.[Cl-].[Zr+4] has a reported TGI of > 100 µM

The compound listed as N#Cc1nc(-c2cccc(-c3nc(C#N)c(N)o3)n2)oc1N has a reported TGI of > 100 µM

The compound listed as C=CC(C)(O)CC/C=C(\CO)C(=O)OC1C(C)OC(O[C@](C)(C=C)CC/C=C(\CO)C(=O)O[C@H]2C[C@@]3(C(=O)OC4OC(CO)C(O)C(O)C4OC4OC(C)C(OC5OC(CO)C(O)C5O)C(OC5OC(CO)C(O)C(O)C5O)C4O)C(CC2(C)C)C2=CCC4[C@@]5(C)CC[C@H](OC6OC(COC7OC(C)C(O)C(O)C7OC7OCC(O)C(O)C7O)C(O)C(O)C6NC(C)=O)C(C)(C)C5CC[C@@]4(C)[C@]2(C)C[C@H]3O)C(O)C1O (stereo partly specified) has a reported TGI of 0.668 µM

* * *

# System: HCT-15 colon
# assay.notes: NCI tumour cell line growth inhibition, 48 h
// TGI lookup, one value per entry

The cases that follow already have their TGI on record.
compound | test.result
O=C(O)c1ccc(N/C(=C(/C(Cl)=C(Cl)Cl)[N+](=O)[O-])n2nnc3ccccc32)cc1 | > 100 µM
CC(C(N)=O)N(C)C(=O)c1cnc2ccccc2c1 (stereo unspecified) | > 100 µM
COc1cc(/C=N/NC(=O)c2ccccc2Nc2cccc(C(F)(F)F)c2)cc(OC)c1OC | 13.2 µM
COc1ccc(C(=O)c2cc3c(N)c(C(=O)Nc4cccc(OC)c4)sc3nc2C)cc1 | > 100 µM
O=C(N/N=C\c1ccc([N+](=O)[O-])s1)c1ccncc1 | > 44 µM
NC(=O)Oc1ccccc1 | > 100 µM
CC(/C=N/N=C(N)N)=N\N=C(N)N | 2500 µM
CNC(c1ccncc1)C(NC)c1ccncc1 (stereo unspecified) | > 100 µM
CC(C)c1ccc(/C=C2\CSCC3=C2N=C2SCC(=O)N2C3c2ccc(C(C)C)cc2)cc1 (stereo unspecified) | > 100 µM
Cc1cc2nc(-c3c(F)cccc3Cl)n(Cc3c(F)cccc3Cl)c2cc1C | 33.3 µM

The compound listed as CCOC(=O)C(C/C=C/CO)N(C)C(=O)OC(C)(C)C (stereo unspecified) has a reported TGI of > 100 µM

The compound listed as O=C(/C=C/c1ccccc1)CCC1C(=O)NC(=S)NC1=O has a reported TGI of > 100 µM

The compound listed as O=c1c2ccccc2nc(-c2ccccc2)n1NC(=S)Nc1cccc(Cl)c1 has a reported TGI of > 100 µM

The compound listed as Cn1nc(-c2ccccc2)c(C(=O)/C=C/c2ccc(Cl)cc2)c(N2CCCC2)c1=O has a reported TGI of > 100 µM

The compound listed as c1cc2c(cc1C1=NCCN1)c1cc(C3=NCCN3)ccc1n2CC1CCCCC1 has a reported TGI of > 100 µM

The compound listed as COc1ccc(-n2cnc3c(NC(Cc4ccccc4)C(=O)O)ncnc32)cc1 (stereo unspecified) has a reported TGI of > 100 µM

* * *

// TGI lookup, one value per entry
# Tested on: BT-549 breast
# assay.notes: NCI tumour cell line growth inhibition, 48 h
Write it as a number; the unit µM goes unstated.

compound | target | unit.of.measure | TGI
C=C1C(=O)OC2C3OC(C)(CCC(O)C3COC(C)=O)CC(OC(=O)/C(=C/C)COC(C)=O)C12 (stereo not drawn) | BT-549 breast | µM | 0.722

The compound listed as c1cc2c(cc1C1=NCCN1)c1cc(C3=NCCN3)ccc1n2CC1CCCCC1 has a reported TGI of 41.9

* * *

# Test system: HOP-92 NSCLC
# assay.notes: NCI tumour cell line growth inhibition, 48 h
// TGI lookup, one value per entry

compound | TGI
COc1ccc2c([nH]c3c(O)c(-c4c(C)cc5c([nH]c6c(CC=C(C)C)c(OC)ccc65)c4O)c(C)cc32)c1CC=C(C)C | > 100 µM
O=C(/C=C/c1ccccc1)CCC1C(=O)NC(=S)NC1=O | > 100 µM

Continue with the next compound.
The compound listed as CC[C@@]1(O)C(=O)OCc2c1cc1n(c2=O)Cc2c-1nc1ccccc1c2/C=N\NC(=O)C(N)Cc1c[nH]c2ccccc12 (stereo partly drawn) has a reported TGI of > 54 µM

* * *

# Test system: HOP-92 NSCLC
# assay.notes: NCI tumour cell line growth inhibition, 48 h
// TGI lookup, one value per entry
Write it as a number; the unit µM goes unstated.

The compound listed as C=CC(C)(O)CC/C=C(\CO)C(=O)OC1C(C)OC(O[C@](C)(C=C)CC/C=C(\CO)C(=O)O[C@H]2C[C@@]3(C(=O)OC4OC(CO)C(O)C(O)C4OC4OC(C)C(OC5OC(CO)C(O)C5O)C(OC5OC(CO)C(O)C(O)C5O)C4O)C(CC2(C)C)C2=CCC4[C@@]5(C)CC[C@H](OC6OC(COC7OC(C)C(O)C(O)C7OC7OCC(O)C(O)C7O)C(O)C(O)C6NC(C)=O)C(C)(C)C5CC[C@@]4(C)[C@]2(C)C[C@H]3O)C(O)C1O (stereo not given in full) has a reported TGI of 0.794

The compound listed as CC(C)(C)Sc1nnc(SC(C)(C)C)c2c(=O)[nH]nc(SC(C)(C)C)c12 has a reported TGI of 14.1

The compound listed as Cc1cc2nc(-c3c(F)cccc3Cl)n(Cc3c(F)cccc3Cl)c2cc1C has a reported TGI of 33.5

The compound listed as O=C(c1ccc2ccccc2c1)c1c(C(F)(F)F)n([O-])c2ccc(F)cc2[n+]1=O has a reported TGI of 2.95

The compound listed as O=C(/C=C/c1ccc([N+](=O)[O-])cc1)c1cccc(Nc2nc(Nc3ccccc3)nc(Nc3ccccc3)n2)c1 has a reported TGI of 8.5

* * *

// TGI lookup, one value per entry
# System: UACC-257 melanoma
# assay.notes: NCI tumour cell line growth inhibition, 48 h

The cases that follow already have their TGI on record.
compound | TGI
CC(C)(C)[Si](C)(C)OC[C@H](/C=C\CCCC(=O)O)NC1(c2ccccc2)c2ccccc2-c2ccccc21 | 43.4 µM
C/C(=N\NS(=O)(=O)c1ccc([N+](=O)[O-])cc1)c1ccc[n+]([O-])n1 | 14.6 µM
C[C@H](CCC(=O)NCC(=O)O)[C@H]1CC[C@H]2[C@@H]3[C@H](O)C[C@@H]4C[C@H](O)CC[C@]4(C)[C@H]3CC[C@]12C | > 100 µM
CCCCCCCCCCCCCCCC1(OC)C[N+](C)(C)CCO1 (centres undefined) | 4.85 µM

TGI value, target or system UACC-257 melanoma, for COc1ccc(-c2n/c(=C\c3c(O)[nH]c4ccccc34)cc3c2=Nc2ccccc2-3)cc1 : 6.97 µM

TGI value, target or system UACC-257 melanoma, for Cc1cc(Nc2nc(-c3ccncc3)nc3ccccc23)n[nH]1 : > 100 µM

TGI value, target or system UACC-257 melanoma, for CC/C(=C\c1ccc(OC)cc1)c1ccc(OC)cc1 : > 100 µM

TGI value, target or system UACC-257 melanoma, for CC(C(N)=O)N(C)C(=O)c1cnc2ccccc2c1 (centres undefined) : > 100 µM

TGI value, target or system UACC-257 melanoma, for CC(=O)NC1C(OCc2ccccc2)OC(CO)C(O)C1OCC(=O)N[C@@H](C)C(=O)N[C@H](CCC(=O)NCCCNc1ccc([N+](=O)[O-])c2[nH]c3ccccc3c(=O)c12)C(N)=O (some centres undefined) : > 100 µM

TGI value, target or system UACC-257 melanoma, for Cc1ccc(S(=NS(=O)(=O)c2ccc(C)cc2)c2ccc(C)cc2)cc1 : > 100 µM

TGI value, target or system UACC-257 melanoma, for COC(=O)C(=O)C(C(=O)C(=O)Nc1cc(Cl)c(Cl)cc1Cl)c1nc2ccc([N+](=O)[O-])cc2[nH]c1=O (centres undefined) : > 100 µM

TGI value, target or system UACC-257 melanoma, for N#Cc1nc(-c2cccc(-c3nc(C#N)c(N)o3)n2)oc1N : > 100 µM

TGI value, target or system UACC-257 melanoma, for Cc1noc(/N=C2\C=C(Nc3onc(C)c3C)C(=O)c3ccccc32)c1C : > 100 µM
